test system: Mycobacterium tuberculosis; experiment: Antimycobacterial activity against multi drug-resistant Mycobacterium tuberculosis praha 4 assessed as minimal inhibitory concentration required for complete inhibition of mycobacterial growth incubated for 21 days; format: functional; conditions: praha 4, 504 h, time 21 day
VALUE_KIND: MIC (µM)
Answers are plain numbers, in µM.

Completed entries (count: 5):
- RECORD_SMILES: "C/C(=N\\NC(=O)c1ccncc1)C(=O)Nc1ccc(F)cc1"
  TEST_SYSTEM: "Mycobacterium tuberculosis"
  MIC / µM: 64
- RECORD_SMILES: "C/C(=N\\NC(=O)c1ccncc1)C(=O)Nc1cccc(Cl)c1"
  TEST_SYSTEM: "Mycobacterium tuberculosis"
  MIC / µM: 32
- RECORD_SMILES: "C/C(=N\\NC(=O)c1ccncc1)C(=O)Nc1ccc(Cl)cc1"
  TEST_SYSTEM: "Mycobacterium tuberculosis"
  MIC / µM: 32
- RECORD_SMILES: "C/C(=N\\NC(=O)c1ccncc1)C(=O)Nc1ccc(Cl)c(Cl)c1"
  TEST_SYSTEM: "Mycobacterium tuberculosis"
  MIC / µM: 125
- RECORD_SMILES: "C/C(=N\\NC(=O)c1ccncc1)C(=O)Nc1ccc(Br)cc1"
  TEST_SYSTEM: "Mycobacterium tuberculosis"
  MIC / µM: 32

Working through the 2 compounds below one at a time, give MIC for each.
1. C/C(=N\NC(=O)c1ccncc1)C(=O)Nc1ccc(OC(F)(F)F)cc1
2. C/C(=N\NC(=O)c1ccncc1)C(=O)Nc1ccc(C(F)(F)F)cc1

[64, 64]

Fill blank: measured MIC of the compound C/C(=N\NC(=O)c1ccncc1)C(=O)Nc1ccc(I)cc1 is ____.
32
